The reported numbers originate from the supplement of paper PMC9170038.

tested on: K4 kissing-loop RNA reporter; assay: apparent KD of K4 kissing-loop reporter; higher = weaker reporter binding; details: Eterna round: R107; input ligand: FMN 200 uM;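 further: bound reporter read as fluorescence of individual clusters on recovered sequencing chips by microscopy, with normalized cluster intensities fitted with a binding model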
Would you mind labelling by apparent KD of K4 kissing-loop reporter? At or over 300 nM is yes (1), under is no (0).

Consider the following illustrative entries.
>  <seq-text>
CCAUCGCUAUUCGAUACCAGCUCCUUAGUGAUGUUAAGGUUUUACCCACUGUAGGUGGGAAGCCCUUGGCAGCGAAUAGUGAUGG [Theophylline B K4 28]

>  <label-class>
yes (1)

$$$$
>  <seq-text>
AGACUACCACACUGUCAAUAGACAGUGUACUAGGAUAUGCUGAUAAGCAGAAGGAGUGAUGUUCCGAGGUAGUCAAUAAAAUAAU [FmnAX 13 U28+G66]

>  <label-class>
yes (1)

$$$$
>  <seq-text>
AAGGCCACGAGAAGGAGCGUGCUAUGGAGUGAUGUUCCAGUGUAGACCUAAGGUCUACACGCACAGGUAGGUCGCUCGUGGUCAA [Omei KL Arginine B SS A v1]

>  <label-class>
no (0)

$$$$

Determine whether measured apparent KD of K4 kissing-loop reporter meets or exceeds 300 nM for AUAUUGGUUGAGAGUGAUGUUCCUUGUGUUCGAGGACCGGUACGGCCGCCACUCGGGUAGAAAAUAAAAGAUAUGUUUGAUUUUU [BDazzled - #12 SS Tryptophan A] no (0)

Determine whether measured apparent KD of K4 kissing-loop reporter meets or exceeds 300 nM for UUUCCAGAUAAGUGGGAACACUCCAUAACAGAGGAUAUCAGAGCGCUGAGAAGGCUGUUUUACAGUGAUGUUGUAAGUGUGGAGU [FMN A SS t2] no (0)

Determine whether measured apparent KD of K4 kissing-loop reporter meets or exceeds 300 nM for UGGUUUAACUGAAGGAGCGGCAAUUGAUAAGUAAAUAUAGUGAUGUUAUAUAAGAUAGAGAGCCAGGUAGGUCGCAGAGGUAUUU [ExArgB.O] no (0)

Determine whether measured apparent KD of K4 kissing-loop reporter meets or exceeds 300 nM for UUGUUUGGUUGAGAGGUUGGGCGAGAUGAUACCAGUAUAGAAGAGUACCCUUGGCAGCAUAGGAGAGAUAUAGUGAUGUUGUAUG [SSTheophA.T] yes (1)

Determine whether measured apparent KD of K4 kissing-loop reporter meets or exceeds 300 nM for AUGCGCGCGGCGGCCGCCACUCGCAUGAGAGUGAUGUUCUCGCCGGGCCCGAAAGGGCCCGGUGUGAGGACCGGGCCGGGCUGCG [#2 Same State - Tryptophan B Attempt #15 (HarryS)] no (0)

Determine whether measured apparent KD of K4 kissing-loop reporter meets or exceeds 300 nM for AUAACAAUCUGAAGGAGCGAGAAAGCAGUGAUGUUGCAAAGGCGAGUGAUGUUCGCAAUAACUCAGGUAGGUCGCAGAAACAAGA [Same State Arginine B] no (0)
